- studyTarget: Gastrin receptor (gastric glands) (Cavia porcellus, UniProt H0VZC5)
- Construct: The washed guinea pig gastric glands prepared as above were resuspended; from tissue; host or cells: guinea pig gastric mucosal glands (male Hartley)
- Sequence (H0VZC5 1-426): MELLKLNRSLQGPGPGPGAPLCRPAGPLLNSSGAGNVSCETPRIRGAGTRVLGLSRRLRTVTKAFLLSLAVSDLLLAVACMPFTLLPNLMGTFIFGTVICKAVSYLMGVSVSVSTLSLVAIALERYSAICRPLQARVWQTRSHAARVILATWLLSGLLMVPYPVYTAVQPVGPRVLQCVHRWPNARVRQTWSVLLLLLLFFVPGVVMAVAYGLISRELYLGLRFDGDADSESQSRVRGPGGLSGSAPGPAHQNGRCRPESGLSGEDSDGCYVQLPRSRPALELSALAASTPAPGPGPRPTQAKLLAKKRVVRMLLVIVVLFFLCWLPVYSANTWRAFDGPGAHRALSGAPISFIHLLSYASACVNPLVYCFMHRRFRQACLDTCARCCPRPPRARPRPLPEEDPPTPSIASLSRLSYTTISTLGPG
- experimentalDetails: Gastrin Receptor Binding in Guinea Pig Gastric Glands
- Parameters: species or system guinea pig (male Hartley)
- conditionDetails: IC50 ^125 I-Gastrin Gastric Glands, 25° C., 30 minutes
quantityMeasured: IC50 (µM)
Your answer should be a plain number; it is taken to be in µM.

molecule	quantityMeasured	displayUnit	testResult
CN1C(=O)C(NC(=O)Nc2cccc(Br)c2)N=C(c2ccccc2)c2ccccc21 (stereo not shown)	IC50	µM	0.0028

Quick note, IC50 for O=C(NC1N=C(c2ccccc2F)c2ccccc2NC1=O)c1cc2ccccc2[nH]1 (racemic) landed at 4.6

Please fill in: IC50 reported for CCCc1ccc(C(=O)NC2N=C(c3ccccc3)c3ccccc3NC2=O)cc1 (racemic) = 80

Summary for this molecule, CCCCCc1ccc(C(=O)N[C@H]2N=C(c3ccccc3F)c3ccccc3N(C)C2=O)cc1 : IC50 is 60

Notebook: Cc1ccc(C(=O)NC2N=C(c3ccccc3F)c3ccccc3NC2=O)cc1 (racemic) , IC50 read as 5

====

- studyTarget: CCK receptor (pancreas) (Rattus norvegicus, UniProt P30551)
- Construct: The whole pancreas was dissected free of fat tissue and was homogenized; from tissue; host or cells: rat pancreas membranes (Sprague-Dawley)
- Sequence (P30551 1-444): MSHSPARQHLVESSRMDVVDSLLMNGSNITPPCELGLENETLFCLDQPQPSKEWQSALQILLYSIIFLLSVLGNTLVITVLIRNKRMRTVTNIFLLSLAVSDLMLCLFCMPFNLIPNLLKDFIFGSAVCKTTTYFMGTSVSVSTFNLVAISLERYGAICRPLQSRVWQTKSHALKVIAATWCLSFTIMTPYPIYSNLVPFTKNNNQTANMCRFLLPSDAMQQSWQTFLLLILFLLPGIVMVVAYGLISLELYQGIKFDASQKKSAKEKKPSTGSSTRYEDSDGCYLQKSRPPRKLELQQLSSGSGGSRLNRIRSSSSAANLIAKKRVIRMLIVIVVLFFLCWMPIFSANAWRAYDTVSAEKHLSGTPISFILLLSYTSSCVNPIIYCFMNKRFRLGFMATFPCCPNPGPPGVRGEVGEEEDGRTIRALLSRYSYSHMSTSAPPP
- experimentalDetails: CCK Receptor Binding (Pancreas): inhibition of ^125 I-CCK-33 binding
- Parameters: species or system Male Sprague-Dawley rats
- conditionDetails: rat pancreas membranes, ^125 I-CCK-33, 37° C., 30 minutes; read-out: IC50 ^125 I-CCK Pancreas
quantityMeasured: IC50 (nM)
Give the value, in units of nM, as a plain number.

compound	displayUnit	IC50
O=C(Nc1ccc(Cl)cc1)NC1N=C(c2ccccc2)c2ccccc2N(CC(=O)N2CCCC2)C1=O (stereo not shown)	nM	520
CN1C(=O)[C@@H](NC(=O)c2ccc(Cl)cc2)N=C(c2ccccc2F)c2ccccc21	nM	2.5
O=C(NC1N=C(c2ccccc2)c2ccccc2NC1=O)C1Cc2ccccc2N1 (stereo not shown)	nM	900

// IC50 value for COc1ccccc1NC(=O)NC1N=C(c2ccccc2)c2ccccc2N(C)C1=O (stereo not shown) : 600

Attribution: patent US4820834A
